- PROTOCOL NOTES: Cytotoxicity against mouse J7.DEF.3 cells
- Format: cell-based
# label = TRUE if log(1/C) >= 7 else FALSE

Solved cases (5 shown):
CC(=O)O[C@H]1C(=O)[C@@]2(C)[C@H]([C@H](OC(=O)c3ccccc3)[C@]3(O)C[C@H](OC(=O)[C@H](O)[C@@H](NC(=O)c4cccc5ccccc45)c4ccccc4)C(C)=C1C3(C)C)[C@]1(OC(C)=O)CO[C@@H]1C[C@@H]2O    FALSE
CC(=O)O[C@H]1C(=O)[C@@]2(C)[C@H]([C@H](OC(=O)c3ccccc3)[C@]3(O)C[C@H](OC(=O)[C@H](O)[C@@H](NC(=O)c4ccco4)c4ccccc4)C(C)=C1C3(C)C)[C@]1(OC(C)=O)CO[C@@H]1C[C@@H]2O    FALSE
CC(=O)O[C@H]1C(=O)[C@@]2(C)[C@H]([C@H](OC(=O)c3ccccc3)[C@]3(O)C[C@H](OC(=O)[C@H](O)[C@@H](NC(=O)c4ccc5ccccc5c4)c4ccccc4)C(C)=C1C3(C)C)[C@]1(OC(C)=O)CO[C@@H]1C[C@@H]2O    TRUE
CC(=O)O[C@H]1C(=O)[C@@]2(C)[C@H]([C@H](OC(=O)c3ccccc3)[C@]3(O)C[C@H](OC(=O)[C@H](O)[C@@H](NC(=O)Cc4ccccc4)c4ccccc4)C(C)=C1C3(C)C)[C@]1(OC(C)=O)CO[C@@H]1C[C@@H]2O    TRUE
COc1ccc(C(=O)N[C@@H](c2ccccc2)[C@@H](O)C(=O)O[C@H]2C[C@@]3(O)[C@@H](OC(=O)c4ccccc4)[C@@H]4[C@]5(OC(C)=O)CO[C@@H]5C[C@H](O)[C@@]4(C)C(=O)[C@H](OC(C)=O)C(=C2C)C3(C)C)cc1OC    TRUE

Next compound, please.
## Input Given the entry COc1ccc(C(=O)N[C@@H](c2ccccc2)[C@@H](O)C(=O)O[C@H]2C[C@@]3(O)[C@@H](OC(=O)c4ccccc4)[C@@H]4[C@]5(OC(C)=O)CO[C@@H]5C[C@H](O)[C@@]4(C)C(=O)[C@H](OC(C)=O)C(=C2C)C3(C)C)cc1 , answer whether its log(1/C) meets or surpasses 7.
## Output TRUE
